- Tested on: 317291-083-R-J1-PDC complex spheroid growth;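 further: compound exposure lasted seven days after spheroids formed for three days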
- PROTOCOL: Anticancer human tumor 317291-083-R-J1-PDC patient-derived soft tissue sarcoma cell line growth inhibition [Asc]
- EXPERIMENTAL_SETUP: curve of first compound; second compound 10 µM
ENDPOINT_LABEL: pIC50
The value called pIC50 is obtained by taking minus log10 of the concentration in mol/L.

COMPOUND	ENDPOINT_LABEL	VALUE_OBSERVED
CCN1CCN(Cc2ccc(Nc3ncc(F)c(-c4cc(F)c5nc(C)n(C(C)C)c5c4)n3)nc2)CC1 + Cc1c(S(C)(=O)=O)c(-c2cc(F)cc(N3CCN(c4ccc(NS(=O)(=O)c5ccc(NC(CCN6CCC(C(=O)OCCCP(=O)(O)O)CC6)CSc6ccccc6)c(S(=O)(=O)C(F)(F)F)c5)cc4)CC3)c2)c(-c2ccc(Cl)cc2)n1C(C)C	pIC50	6.43
Cn1ncnc1[C@H]1c2n[nH]c(=O)c3cc(F)cc(c23)N[C@@H]1c1ccc(F)cc1 + Cc1c(S(C)(=O)=O)c(-c2cc(F)cc(N3CCN(c4ccc(NS(=O)(=O)c5ccc(NC(CCN6CCC(C(=O)OCCCP(=O)(O)O)CC6)CSc6ccccc6)c(S(=O)(=O)C(F)(F)F)c5)cc4)CC3)c2)c(-c2ccc(Cl)cc2)n1C(C)C	pIC50	7.49

// switching to the query compound
Requested read-out: pIC50. Entry: CNC(C)C(=O)NC1CN(S(=O)(=O)c2cccc(S(=O)(=O)N3CCC4CCC(C(=O)NC(c5ccccc5)c5ccccc5)N4C(=O)C(NC(=O)C(C)NC)C3)c2)CCC2CCC(C(=O)NC(c3ccccc3)c3ccccc3)N2C1=O (stereo not drawn) + Cc1c(S(C)(=O)=O)c(-c2cc(F)cc(N3CCN(c4ccc(NS(=O)(=O)c5ccc(NC(CCN6CCC(C(=O)OCCCP(=O)(O)O)CC6)CSc6ccccc6)c(S(=O)(=O)C(F)(F)F)c5)cc4)CC3)c2)c(-c2ccc(Cl)cc2)n1C(C)C
6.83
